System: human cervical carcinoma cell line (Hela)
Format: cell-based
Details: 48 h
readout.label: IC50 (µg/mL) in Different Cell Lines, Hela
# do not omit the unit; it follows the number

Asked: Look up IC50 (µg/mL) in Different Cell Lines, Hela for this molecule: "CC(C)C[C@@H]1NC(=O)[C@H](CC(C)C)N(C)C(=O)[C@@H](CC(C)C)NC(=O)[C@H](CC(C)C)N(C)C(=O)[C@H](Cc2ccccc2)NC1=O"
Given back: 4.2 ± 0.32 µg/mL

Asked: Please do the same for "CC(C)C[C@@H]1NC(=O)[C@@H](CC(C)C)N(C)C(=O)[C@H](CC(C)C)NC(=O)[C@H](CC(C)C)N(C)C(=O)[C@H](Cc2ccccc2)NC1=O" as well.
Given back: 7.4 ± 0.33 µg/mL

* * *

System: human hepatocellular cells (HepG2)
Assay type: cell-based
Details: 48 h
readout.label: IC50 (µg/mL) in Different Cell Lines, HepG2

Asked: Look up IC50 (µg/mL) in Different Cell Lines, HepG2 for this compound: CC(C)C[C@@H]1NC(=O)[C@H](CC(C)C)N(C)C(=O)[C@@H](CC(C)C)NC(=O)[C@H](CC(C)C)N(C)C(=O)[C@H](Cc2ccccc2)NC1=O [Analog-4, Cyclo(Me-Leu-Leu-Phe-Me-Leu-D-Leu)]
Given back: 7.2 ± 0.15 µg/mL

Asked: Please do the same for CC(C)C[C@@H]1NC(=O)[C@H](CC(C)C)N(C)C(=O)[C@H](CC(C)C)NC(=O)[C@H](CC(C)C)N(C)C(=O)[C@@H](Cc2ccccc2)NC1=O [Analog-2, Cyclo(Me-Leu-Leu-D-Phe-Me-Leu-Leu)] as well.
Given back: 4.56 ± 0.22 µg/mL

Asked: Please do the same for CC(C)C[C@@H]1NC(=O)[C@H](CC(C)C)N(C)C(=O)[C@H](Cc2ccccc2)NC(=O)[C@@H](CC(C)C)NC(=O)[C@H](CC(C)C)N(C)C1=O [Analog-6, Cyclo(Me-Leu-D-Leu-Phe-Me-Leu-Leu)] as well.
Given back: 4.1 ± 0.20 µg/mL

Asked: Please do the same for CC(C)C[C@@H]1NC(=O)[C@H](CC(C)C)N(C)C(=O)[C@H](CC(C)C)NC(=O)[C@H](CC(C)C)N(C)C(=O)[C@H](Cc2ccccc2)NC1=O [Analog-1, Cyclo(Me-Leu-Leu-Phe-Me-Leu-Leu)] as well.
Given back: 5.85 ± 0.13 µg/mL

Asked: Please do the same for CC(C)C[C@@H]1NC(=O)[C@H](CC(C)C)N(C)C(=O)[C@H](CC(C)C)NC(=O)[C@@H](CC(C)C)N(C)C(=O)[C@H](Cc2ccccc2)NC1=O [Analog-3, Cyclo(Me-Leu-Leu-Phe-Me-D-Leu-Leu)] as well.
Given back: 7.71 ± 0.11 µg/mL

Asked: Please do the same for CC(C)C[C@@H]1NC(=O)[C@@H](CC(C)C)N(C)C(=O)[C@H](CC(C)C)NC(=O)[C@H](CC(C)C)N(C)C(=O)[C@H](Cc2ccccc2)NC1=O [Analog-5, Cyclo(Me-D-Leu-Leu-Phe-Me-Leu-Leu] as well.
Given back: 10.72 ± 0.32 µg/mL

* * *

Test system: human cervical carcinoma cell line (Hela)
Assay type: cell-based
Conditions: 48 h
readout.label: IC50 (µg/mL) in Different Cell Lines, Hela
Give the quantity in µg/mL, number only.

Asked: Look up IC50 (µg/mL) in Different Cell Lines, Hela for this compound: "CC(C)C[C@@H]1NC(=O)[C@H](CC(C)C)N(C)C(=O)[C@H](CC(C)C)NC(=O)[C@H](CC(C)C)N(C)C(=O)[C@H](Cc2ccccc2)NC1=O"
Given back: 6.85

Asked: Please do the same for "CC(C)C[C@@H]1NC(=O)[C@H](CC(C)C)N(C)C(=O)[C@H](CC(C)C)NC(=O)[C@@H](CC(C)C)N(C)C(=O)[C@H](Cc2ccccc2)NC1=O" as well.
Given back: 4.39

Asked: Please do the same for "CC(C)C[C@@H]1NC(=O)[C@H](CC(C)C)N(C)C(=O)[C@H](CC(C)C)NC(=O)[C@H](CC(C)C)N(C)C(=O)[C@@H](Cc2ccccc2)NC1=O" as well.
Given back: 4.95

Asked: Please do the same for "CC(C)C[C@@H]1NC(=O)[C@H](CC(C)C)N(C)C(=O)[C@H](Cc2ccccc2)NC(=O)[C@@H](CC(C)C)NC(=O)[C@H](CC(C)C)N(C)C1=O" as well.
Given back: 3.42
